The reported numbers originate from the Human Domainome abundance scans (Beltran et al. 2025).

B1: Myocardin-related transcription factor A, residues 341 to 383; numbered along this chain, Q969V6 (parent)
chain: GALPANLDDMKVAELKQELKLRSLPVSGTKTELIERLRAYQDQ

Variants of: B1
Experiment: abundance fitness (aPCA) (normalised: wild type 0, dead -1); higher = more abundant; growth selection in yeast, the domain comes from the species named
Conditions: Homo sapiens
Below is a list of entries, each paired with its recorded abundance fitness value.
recorded.metric: abundance fitness

{"mutation.label": "I34L", "reported": -0.146}
{"mutation.label": "V26E", "reported": 0.168}
{"mutation.label": "R38W", "reported": -0.236}
{"mutation.label": "Y40V", "reported": 0.179}
{"mutation.label": "E32A", "reported": -0.053}
{"mutation.label": "P25E", "reported": -0.055}
{"mutation.label": "A39I", "reported": -0.034}
{"mutation.label": "D42N", "reported": 0.186}
{"mutation.label": "K30V", "reported": -0.509}
{"mutation.label": "L37R", "reported": -0.462}
{"mutation.label": "P25K", "reported": -0.135}
{"mutation.label": "D42K", "reported": 0.022}
{"mutation.label": "V26A", "reported": 0.18}
{"mutation.label": "L21R", "reported": 0.057}
{"mutation.label": "L24P", "reported": -0.639}
{"mutation.label": "K30I", "reported": -0.158}
{"mutation.label": "D42E", "reported": 0.137}
{"mutation.label": "T29K", "reported": -0.092}
{"mutation.label": "E35K", "reported": 0.035}
{"mutation.label": "T29I", "reported": -0.362}
{"mutation.label": "R22E", "reported": -0.163}
{"mutation.label": "R36G", "reported": -0.188}
{"mutation.label": "P25G", "reported": -0.186}
{"mutation.label": "T29L", "reported": -0.376}
{"mutation.label": "I34E", "reported": -0.151}
{"mutation.label": "L37D", "reported": -0.298}
{"mutation.label": "R36W", "reported": -0.73}
{"mutation.label": "I34D", "reported": -0.546}
{"mutation.label": "T31V", "reported": -0.035}
{"mutation.label": "T31E", "reported": 0.085}
{"mutation.label": "L24Q", "reported": -0.07}
{"mutation.label": "S23I", "reported": -0.307}
{"mutation.label": "P25V", "reported": -0.358}
{"mutation.label": "Y40R", "reported": 0.042}
{"mutation.label": "S27L", "reported": -0.376}
{"mutation.label": "Q43C", "reported": -0.037}
{"mutation.label": "T31S", "reported": -0.061}
{"mutation.label": "L21W", "reported": -0.283}
{"mutation.label": "E32Y", "reported": -0.669}
{"mutation.label": "T31W", "reported": -0.246}
{"mutation.label": "R36L", "reported": -0.416}
{"mutation.label": "Y40K", "reported": -0.103}
{"mutation.label": "L24C", "reported": -0.385}
{"mutation.label": "E35T", "reported": -0.173}
{"mutation.label": "E35A", "reported": 0.23}
{"mutation.label": "S23N", "reported": 0.008}
